Reference source: patent US20190144529A1

target: T1, human serum albumin (human, UniProt P02768 25-609); assay: SPR, Fab captured; albumin taken as HSA;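 note: captured antibody exposed to albumin for 3 min association, then dissociation followed, with blank flow-cell reference and buffer-blank injections subtracted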
T1 construct: mature; Bought purified serum albumin; also called HSA; Human albumin
Experimental endpoint: Kd (nM)
Answer with a number only, understood to be in nM.

Ask | Give the measured Kd of CA645 gL11gH5 Fab (Fab, V domains shown, Fab: human gamma1 CH1, human kappa (Km3); Kabat numbering) VH: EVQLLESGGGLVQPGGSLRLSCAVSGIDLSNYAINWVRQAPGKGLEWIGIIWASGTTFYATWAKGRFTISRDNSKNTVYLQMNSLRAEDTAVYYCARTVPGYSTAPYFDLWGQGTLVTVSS VL: DIQMTQSPSSVSASVGDRVTITCQSSPNVWSNFLSWYQQKPGKAPKLLIYEASKLTSGVPSRFSGSGSGTDFTLTISSLQPEDFATYYCGGGYSSISDTTFGGGTKVEIK .
Reply | 4.42

Ask | Give the measured Kd of CA645 gL32gH5 Fab (Fab, V domains shown, Fab: human gamma1 CH1, human kappa (Km3); Kabat numbering) VH: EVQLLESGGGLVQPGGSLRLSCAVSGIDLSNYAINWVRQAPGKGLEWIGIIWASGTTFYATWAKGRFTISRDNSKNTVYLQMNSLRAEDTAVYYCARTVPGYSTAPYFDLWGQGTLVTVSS VL: DIQMTQSPSSVSASVGDRVTITCQSSPSVWSNFLSWYQQKPGKAPKLLIYEASKLTSGVPSRFSGSGQGTDFTLTISSLQPEDFATYYCGGGYSSISDTTFGGGTKVEIK .
Reply | 2.44

Ask | Give the measured Kd of CA645 gL33gH5 Fab (Fab, V domains shown, Fab: human gamma1 CH1, human kappa (Km3); Kabat numbering) VH: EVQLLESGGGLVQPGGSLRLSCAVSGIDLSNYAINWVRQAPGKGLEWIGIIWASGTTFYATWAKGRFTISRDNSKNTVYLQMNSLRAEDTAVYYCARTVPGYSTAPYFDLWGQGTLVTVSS VL: DIQMTQSPSSVSASVGDRVTITCQSSPSVWSNFLSWYQQKPGKAPKLLIYEASKLTSGVPSRFSGSGEGTDFTLTISSLQPEDFATYYCGGGYSSISDTTFGGGTKVEIK .
Reply | 3.32
